Tested on: ATS189
protocolSummary: qHTS profiling for inhibitors of Plasmodium falciparum proliferation (AID 504749); note: nearly all actives have a fitted effect of over 60% in size
assayContext: P. falciparum in erythrocytes, SYBR Green DNA, 72 h; series mostly up to 28.7 µM
Records with an inconclusive call do not appear. Calls of active or inactive are those of the source. Calls come from the whole dose curve; as a rule, active = well fitted inhibition curve with a large enough effect; inconclusive = small, poorly fitted or top-dose-only effect; inactive = flat fitted curve, though single readings scatter. Where a SMILES comes first, the peptide text is derived from it. [ ]: non-standard residue; d: D form. pGlu = O=C1CC[C@@H](C(=O)O)N1; Thz = O=C(O)[C@@H]1CSCN1
Labels: active, inactive

molecule | labelValue
O=C(CCN1CCN(CCO)CC1)N1c2ccccc2Sc2ccc(C(F)(F)F)cc21 | active
CCCSc1ccc2nc(NC(=O)OC)[nH]c2c1 | inactive
CCCCCCCCCCCCCCCC(=O)OC(C)C | inactive
CN1CCN(c2cc3c(nn2)Oc2ccccc2N3C)CC1 | inactive
O=C(Nc1ccc(C(=O)O)c(O)c1)c1ccccc1 | inactive
c1ccc2sc(SN3CCOCC3)nc2c1 | inactive
CCC1C(=O)OCC1Cc1cncn1C (stereo unspecified) | inactive
C=CCCCCCCCCC(=O)O | inactive
Nc1cc(-c2ccncc2)c[nH]c1=O | inactive
O=C(O)c1ccccc1Nc1cccc(C(F)(F)F)c1 | inactive
CCCOC(=O)c1ccc(O)cc1 | inactive
O=C1CC[C@@H](C(=O)N2CSC[C@H]2C(=O)O)N1 ([pGlu]-[Thz]-OH) | inactive
O=C(O)[C@H](CC(=O)N1C[C@H]2CCCC[C@H]2C1)Cc1ccccc1 | inactive
Cc1cc(O)c2ccccc2c1O | inactive
Cc1ccc(O)c(-n2nc3ccccc3n2)c1 | inactive
[O-][n+]1ccccc1SSc1cccc[n+]1[O-] | active
CCOc1ccc2nc(S(N)(=O)=O)sc2c1 | inactive
Cc1c(Nc2ncccc2C(=O)O)cccc1C(F)(F)F | inactive
Oc1c(Br)cc(Br)c2cccnc12 | inactive
CC1(C)C[C@@H]1C(=O)N/C(=C\CCCCSC[C@H](N)C(=O)O)C(=O)O | inactive
O=C1CN(/N=C/c2ccc(-c3ccc([N+](=O)[O-])cc3)o2)C(=O)N1 | inactive
N=c1ccn2c(n1)O[C@H]1[C@H](O)[C@@H](CO)O[C@H]12 | inactive
Cc1ccc(C(=O)c2ccc(CC(=O)O)n2C)cc1 | inactive
CCCCCC[C@@H](O)C/C=C\CCCCCCCC(=O)O | inactive
COc1ccc(-c2cc(=S)ss2)cc1 | inactive
O=C(O)Cc1ccc(-c2ccccc2)cc1 | inactive
COc1ccc(/C=C/C(=O)Nc2ccccc2C(=O)O)cc1OC | inactive
O=C(O)/C=C/C(O)c1ccc(Cl)cc1 (stereo unspecified) | inactive
CC1OC1P(=O)(O)O (stereo unspecified) | inactive
CCOC(=O)c1ccccc1O | inactive
Cc1[nH]cnc1CN1CCc2c(c3ccccc3n2C)C1=O | inactive
Nc1c(CC(=O)O)cccc1C(=O)c1ccc(Br)cc1 | inactive
CC1(C)[C@@H](O)CC[C@]2(C)[C@H]3C(=O)C=C4[C@@H]5C[C@@](C)(C(=O)O)CC[C@]5(C)CC[C@@]4(C)[C@]3(C)CC[C@@H]12 | inactive
C=CCN1C(=O)C(CC(C)C)NC1=S (stereo unspecified) | inactive
CC(C(=O)O)c1ccc2c(c1)[nH]c1ccc(Cl)cc12 (stereo unspecified) | inactive
Nc1ccc(C(=O)O)c(O)c1 | inactive
